System: SF-295 CNS
Assay Comment: NCI tumour cell line growth inhibition, 48 h
Result Type: TGI (µM)
One number for each entry, in µM.

Study these solved cases before continuing.
{"Molecule": "Cc1cc(NCCCNc2ccnc3cc(Cl)ccc23)nc(Nc2ccc(C(=O)N3CCCCC3)cc2)n1", "Target Or System": "SF-295 CNS", "Unit Text": "µM", "Reported Result": 3.89}
{"Molecule": "C=C(c1ccccc1)[C@@]1(O)CCCC[C@H]1NC(c1ccccc1)c1ccccc1", "Target Or System": "SF-295 CNS", "Unit Text": "µM", "Reported Result": 25.1}
{"Molecule": "COc1ccc(Nc2[nH]n(C3=Nc4ccccc4Sc4ccccc43)c(=O)c2C#N)cc1", "Target Or System": "SF-295 CNS", "Unit Text": "µM", "Reported Result": 4.34}
{"Molecule": "COc1ccc(C(=O)OC2C(OC3C(O)COC(O[C@H]4C[C@H]5[C@@H]6CC=C7C[C@@H](O)CC[C@]7(C)[C@H]6CC[C@]5(C)[C@H]4[C@H](C)C(=O)CCC(C)C)C3OC(=O)C(C)C)OCC(O)C2O)cc1 (some centres undefined)", "Target Or System": "SF-295 CNS", "Unit Text": "µM", "Reported Result": 0.00385}
{"Molecule": "Cc1cc(N2CCCCC2)nc(NCc2cc(Nc3ccnc4cc(Cl)ccc34)ccc2F)n1", "Target Or System": "SF-295 CNS", "Unit Text": "µM", "Reported Result": 2.7}

# return TGI for each item in the list
1. O=C1C2=C(C(=O)c3c(O)ccc(O)c31)N(c1cccnc1)Cc1ccccc1O2
2. Cc1nc2ccc(F)cc2c2c1CCN2c1ccccc1
3. O=c1[nH]c(=S)n(-c2cccc3ccccc23)c(O)c1/C=C1\C=Nc2ccccc21
4. S=P(C1CCCCC1)(C1CCCCC1)C(c1cccnc1)N1CCCC1 (centres undefined)
5. C[C@]12CC[C@H](OC(=O)Cc3ccc(N(CCCl)CCCl)cc3)CC1CC[C@@H]1C2CC[C@]2(C)NC(=O)CCC12 (some centres undefined)

Reply:
1: 8.4; 2: 34.4; 3: 10.3; 4: 49.2; 5: 25.2

----------
Tested on: NCI-H23 lung
Assay Comment: NCI tumour cell line growth inhibition, 48 h
I'd be grateful if you could share measured GI50 for these entries.

{"Entry Smiles": "O=c1ncc(I)c[nH]1", "Result Type": "GI50", "Reported Result": "> 100 µM"}
{"Entry Smiles": "CS(=O)(=O)OCCCCOS(C)(=O)=O", "Result Type": "GI50", "Reported Result": "685 µM"}

We next turn to a different molecule, shown below.
Query: Consider the molecule COc1ccc(Nc2[nH]n(C3=Nc4ccccc4Sc4ccccc43)c(=O)c2C#N)cc1 and give its recorded GI50.
Reply: 0.637 µM

----------
System: COLO 205 colon
Assay Comment: NCI tumour cell line growth inhibition, 48 h; in the data active means GI50 below about 0.43 µM; inactive means the rest
Your response should consist of one outcome taken from active, inactive

{"Entry Smiles": "COc1cc2c(cc1OCCCOc1cc3c(cc1OC)C(=O)N1CC(F)(F)C[C@H]1C=N3)N=C[C@@H]1CC(F)(F)CN1C2=O", "Classification": "inactive"}
{"Entry Smiles": "CCCCCCCC(=O)SCC/C=C/[C@@H]1CC(=O)NCc2cccc(n2)C2=N[C@@](C)(CS2)C(=O)N[C@@H](C(C)C)C(=O)O1", "Classification": "active"}
{"Entry Smiles": "CN(Cc1ccccc1)c1ncnc2ccc(Br)cc12", "Classification": "inactive"}
{"Entry Smiles": "CS(=O)(=O)OCCCCOS(C)(=O)=O", "Classification": "inactive"}
{"Entry Smiles": "COc1ccc2c(c1)O/C(=C\\c1ccc([N+](=O)[O-])o1)C2=O", "Classification": "inactive"}

Consider now this further compound.
Query: # fetch the recorded call for CS(=O)(=O)c1nccc(-c2c(-c3cccc(OCc4ccccc4)c3)nc3sccn23)n1 here
Reply: inactive

Values were extracted from PubChem BioAssay (NCI).
